Origin of values: PubChem BioAssay (NCI)

Test system: HL-60(TB) leukemia
Experiment: NCI-60 one-dose screen, 48 h (100 = growth as untreated, 0 = no growth, -100 = all killed)
Settings: 10 µM unless noted
Compounds without any hit were thinned out: in the full panel of roughly 83,000, 20% have a hit. Activity calls are given as the source filed them. The calls were made as follows: active = growth percent below 10; inactive = the rest.
Parameter: growth

| Compound | Parameter | Value reported |
| --- | --- | --- |
| COc1ccc(/C=C(/C#N)n2nnc3cccc(F)c32)cc1 | growth | -9.75% (active) |
| C1CN(SSN2CCOCC2)CCO1 | growth | 35.6% [100 µM] (inactive) |
| O=C1N[C@H]2[C@H](CS[C@H]2CCCCC(=O)N(CCP(c2ccccc2)c2ccccc2)CCP(c2ccccc2)c2ccccc2)N1 | growth | 72.8% (inactive) |
| CCN1C(=O)/C(=c2\sc3n(c2=O)C2C(NN=3)N(CC)C(=S)N2CC)c2ccccc21 (centres undefined) | growth | 87.4% (inactive) |
| O[C@H]1CO[C@H]2[C@@H]1OC[C@@H]2Oc1ccc(Nc2nc(Nc3ccc(F)c(Cl)c3)ncc2F)cc1Cl | growth | 104% (inactive) |
| CCCCCC(=O)Oc1ccc(/C(=C(\C)c2ccc(OC)cc2)c2ccc(OCCN3CCCCC3)cc2)cc1 | growth | 42.7% (inactive) |
| COC(=O)CCC1=C(C)C2=NC1=CC1=NC(=CC3=NC(=Cc4[nH]c(/c(=C(/C)O)c4C)=C2)C(C(C)=O)=C3C)C(C)=C1CCC(=O)OC | growth | 78.2% (inactive) |
| COc1cc2oc(-c3cccc(NC(=O)c4cccc(Br)c4)c3)cc(=O)c2c(OC)c1OC | growth | 65.5% (inactive) |
| COc1ccccc1NC(=O)c1sc2nc3c(cc2c1N)C(=O)CCC3 | growth | 98.6% (inactive) |
| Cc1nn(-c2ccccc2)c(Oc2ccccn2)c1-c1nc2ccccc2s1 | growth | 85.3% (inactive) |
| CN(CCC(=O)/C(=C\c1ccccc1)c1ccc(Cl)cc1)Cc1ccccc1 | growth | 41% (inactive) |
| NC1CCC(Nc2nc(NCc3ccc(-c4cccs4)nc3)c3ncn(C4CCCC4)c3n2)CC1 (centres undefined) | growth | -29.7% (active) |
| CN(Cc1ccccc1)c1nc(Cl)c(C2CC(c3ccc(Cl)cc3)=Cc3[nH][nH]c(=O)c32)s1 (centres undefined) | growth | 104% (inactive) |
| Cc1[nH]c(=O)[nH]c(=O)c1CCSSCCc1c(C)[nH]c(=O)[nH]c1=O | growth | 99.5% (inactive) |
| COc1ccc(C(=O)C(=O)c2ccccc2)cc1 | growth | 94.2% (inactive) |
| O=S(=O)(Nc1ncccn1)c1ccc(NC2Nc3nc4ccccc4nc3S2)cc1 (centres undefined) | growth | 101% (inactive) |
| COc1ccc(OC)c(C(=O)/C=C/c2cc3c(c(OC)c2OC)OCO3)c1 | growth | 48.6% (inactive) |
| C=CCOc1c(Br)cc(Br)cc1Br | growth | 76.2% (inactive) |
| O=C(Nc1ccncc1)C(=O)c1cn(S(=O)(=O)c2ccc(Br)cc2)c2ccccc12 | growth | 15.3% (inactive) |
| C=C1[C@@H](O)C[C@H]2C(C)(C)C[C@H](Cl)C[C@]2(C)[C@H]1C[C@H](O)[C@H]1CC(=O)NC1=O | growth | -26% (active) |
| Cc1ccc(S(=O)(=O)C2=C3C(=C(c4ccccc4)c4ccccc43)CN(S(=O)(=O)c3ccc(C)cc3)C2)cc1 | growth | 65.7% (inactive) |
| CC(C)Cc1ccc(C(C)C(=O)NCc2c[nH]c3ccc(Cl)cc23)cc1 (centres undefined) | growth | 87.6% (inactive) |
| O=C(N/N=C/c1cccnc1)c1ccccc1Nc1cccc(C(F)(F)F)c1 | growth | 64.8% (inactive) |
| O=C(O)c1ccc(-c2nn(-c3ccc(C(=O)O)cc3)cc2/C=N/Nc2c(F)c(F)cc(F)c2F)cc1 | growth | 96.5% (inactive) |
| Nc1ccccc1SC(CC(=O)c1ccccc1)c1c(Cl)cccc1Cl (centres undefined) | growth | 54.8% (inactive) |
| O=c1oc2cc(OS(=O)(=O)c3ccc(F)cc3)ccc2c2c1CCCCC2 | growth | 60.6% (inactive) |
| CCCCCCCCCCCCCC(=O)Oc1ccc[nH]c1=O | growth | 97.1% (inactive) |
| COc1cc2c(cc1OC)N(CCO)C1=C(C(=O)OC1)C2c1ccc(Cl)c(Cl)c1 (centres undefined) | growth | 93.4% (inactive) |
| O=C(Nc1ccc(-c2nc(N3CCOCC3)c3cccn3n2)cc1)Nc1cccnc1 | growth | 12% (inactive) |
| O=c1oc2ccc([N+](=O)[O-])cc2cc1Br | growth | 105% (inactive) |
| CC(=O)Nc1nc(C)c(C(=O)NNC=O)s1 | growth | 104% (inactive) |
| CC1=C(/C=C/C(C)=C/C=C/C(C)=C/CO)C(C)(C)CCC1 | growth | 103% (inactive) |
| COc1cc(-c2cc(-c3cccs3)c(C#N)c(N3CCOCC3)n2)cc(OC)c1OC | growth | 58.9% (inactive) |
| Nc1n[nH]c2cccc(C#Cc3cccc(C(=O)Nc4cc(C(F)(F)F)cc(C(F)(F)F)c4)c3)c12 | growth | 39.7% (inactive) |
| COc1ccccc1-n1cnc(N)c1C(=O)c1cc(OC)c(OC)c(OC)c1 | growth | 10.9% (inactive) |
| COc1nc2c(cc1S(=O)(=O)c1ccccc1)CCc1c-2cnn1-c1cccc(Cl)c1 | growth | 65.2% (inactive) |
| O=C1c2ccc3c4c5ccc(c24)C(=O)N1CCCOCCCCOCCCNCc1ccc(cc1)CNCCCOCCCCOCCCN(C3=O)C5=O | growth | -61.1% (active) |
| Cc1nc2ccccc2c(/C=C/c2ccc(Cl)cc2)c1C(=O)/C=C/c1ccc(F)cc1 | growth | -7.94% (active) |
| COc1ccc(CC(=O)Nc2nn3c(-c4cc(C(F)(F)F)cc(C(F)(F)F)c4)nnc3s2)cc1 | growth | 52% (inactive) |
